biological target: PI3K delta (Homo sapiens, UniProt O00329); test: Luciferase-coupled chemiluminescence kinase assay (ATP consumption, KinaseGlo)
Sequence (O00329 whole entry): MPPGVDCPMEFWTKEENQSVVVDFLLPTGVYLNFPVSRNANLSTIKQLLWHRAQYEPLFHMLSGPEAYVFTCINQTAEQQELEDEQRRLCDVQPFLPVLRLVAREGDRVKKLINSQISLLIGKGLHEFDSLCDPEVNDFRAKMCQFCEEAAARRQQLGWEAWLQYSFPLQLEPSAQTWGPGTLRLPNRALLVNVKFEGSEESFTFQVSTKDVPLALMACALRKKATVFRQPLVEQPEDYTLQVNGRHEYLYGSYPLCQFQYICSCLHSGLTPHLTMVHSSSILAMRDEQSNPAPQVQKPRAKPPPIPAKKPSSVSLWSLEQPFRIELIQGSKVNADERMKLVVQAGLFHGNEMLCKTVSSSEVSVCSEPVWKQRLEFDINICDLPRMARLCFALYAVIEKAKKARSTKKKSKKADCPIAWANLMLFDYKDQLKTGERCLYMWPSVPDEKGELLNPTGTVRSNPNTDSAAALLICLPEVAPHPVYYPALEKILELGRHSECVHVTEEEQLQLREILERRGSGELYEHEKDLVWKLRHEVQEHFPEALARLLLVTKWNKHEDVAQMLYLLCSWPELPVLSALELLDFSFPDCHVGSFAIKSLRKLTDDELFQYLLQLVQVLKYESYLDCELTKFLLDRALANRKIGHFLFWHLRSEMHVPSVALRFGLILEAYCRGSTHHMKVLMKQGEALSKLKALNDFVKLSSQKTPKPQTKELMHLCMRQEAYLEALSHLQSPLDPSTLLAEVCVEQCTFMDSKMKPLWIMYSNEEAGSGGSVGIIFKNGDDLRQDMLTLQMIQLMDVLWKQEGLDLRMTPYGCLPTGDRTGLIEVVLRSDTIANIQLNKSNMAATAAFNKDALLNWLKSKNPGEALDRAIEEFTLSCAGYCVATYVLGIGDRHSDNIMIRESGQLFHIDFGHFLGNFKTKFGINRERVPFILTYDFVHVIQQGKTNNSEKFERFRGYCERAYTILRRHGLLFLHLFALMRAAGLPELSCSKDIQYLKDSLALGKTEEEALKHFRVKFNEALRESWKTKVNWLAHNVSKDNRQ
Sequence (P27986 whole entry partner): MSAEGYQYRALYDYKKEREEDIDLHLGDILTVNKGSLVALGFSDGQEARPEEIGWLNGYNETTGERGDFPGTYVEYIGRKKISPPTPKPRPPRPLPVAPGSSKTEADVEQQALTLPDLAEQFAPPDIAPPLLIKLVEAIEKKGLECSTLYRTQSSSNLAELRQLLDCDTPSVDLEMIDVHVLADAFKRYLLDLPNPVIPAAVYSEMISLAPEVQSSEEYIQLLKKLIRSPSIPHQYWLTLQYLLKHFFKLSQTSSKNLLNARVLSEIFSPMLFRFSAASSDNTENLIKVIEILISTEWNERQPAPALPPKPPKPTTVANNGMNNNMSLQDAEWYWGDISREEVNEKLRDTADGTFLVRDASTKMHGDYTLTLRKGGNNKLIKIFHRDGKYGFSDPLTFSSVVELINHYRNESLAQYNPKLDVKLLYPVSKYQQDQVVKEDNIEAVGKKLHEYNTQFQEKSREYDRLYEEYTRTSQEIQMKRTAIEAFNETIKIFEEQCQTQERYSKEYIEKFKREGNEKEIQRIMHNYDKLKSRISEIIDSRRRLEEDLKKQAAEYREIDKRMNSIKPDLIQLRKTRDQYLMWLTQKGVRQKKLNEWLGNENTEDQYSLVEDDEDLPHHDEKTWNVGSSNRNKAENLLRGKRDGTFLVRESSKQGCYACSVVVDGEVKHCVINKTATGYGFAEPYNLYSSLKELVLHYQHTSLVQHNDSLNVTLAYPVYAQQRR
metric: IC50

structure as smiles: CCn1c(-c2cnc(N(C)C)nc2)nc2c(N3CCC(n4c(=O)[nH]c5ccccc54)CC3)ncnc21
assayed target: PI3K delta (Homo sapiens, UniProt O00329)
metric: IC50
readout value: < 50 nM
//
structure as smiles: Cn1c(C(=O)NCC2CC2)nc2c(N3CCC4(CC3)C(=O)Cc3ccccc34)ncnc21
assayed target: PI3K delta (Homo sapiens, UniProt O00329)
metric: IC50
readout value: 50 to 250 nM
//
structure as smiles: CNc1ncc(-c2nc3c(N4CCC(n5c(=O)[nH]c6ccccc65)CC4)ncnc3n2C)cn1
assayed target: PI3K delta (Homo sapiens, UniProt O00329)
metric: IC50
readout value: < 50 nM
//
structure as smiles: CCn1c(C(=O)NC2CCC2)nc2c(N3CCC(n4c(=O)[nH]c5ccccc54)CC3)ncnc21
assayed target: PI3K delta (Homo sapiens, UniProt O00329)
metric: IC50
readout value: < 50 nM
//
structure as smiles: Cn1cc(-c2nc3c(N4CCN(S(=O)(=O)c5ccc(Cl)cc5Cl)CC4)ncnc3n2C)cn1
assayed target: PI3K delta (Homo sapiens, UniProt O00329)
metric: IC50
readout value: 500 to 1500 nM
//
structure as smiles: Cn1c(C(=O)NCc2cccs2)nc2c(N3CCC4(CC3)C(=O)Nc3ccccc34)ncnc21
assayed target: PI3K delta (Homo sapiens, UniProt O00329)
metric: IC50
readout value: 50 to 250 nM
//
structure as smiles: COc1ccc(-c2nc3c(N4CCC(n5c(=O)[nH]c6ccccc65)CC4)ncnc3n2C)cn1
assayed target: PI3K delta (Homo sapiens, UniProt O00329)
metric: IC50
readout value: < 50 nM
//
structure as smiles: Cn1c(-c2cnc(N)nc2)nc2c(N3CCC(n4c(=O)[nH]c5ccccc54)CC3)ncnc21
assayed target: PI3K delta (Homo sapiens, UniProt O00329)
metric: IC50
readout value: < 50 nM
//
structure as smiles: CCn1c(C(=O)NCC2CC2)nc2c(N3CCC(n4c(=O)[nH]c5ccccc54)CC3)ncnc21
assayed target: PI3K delta (Homo sapiens, UniProt O00329)
metric: IC50
readout value: < 50 nM
//
structure as smiles: Cn1c(C(=O)NCc2ccc(F)cc2F)nc2c(N3CCC4(CC3)C(=O)Nc3ccccc34)ncnc21
assayed target: PI3K delta (Homo sapiens, UniProt O00329)
metric: IC50
readout value: 500 to 1500 nM
//
structure as smiles: Cn1c(C(=O)NCC2CC2)nc2c(N3CC[C@H](c4ccccc4)[C@@H](O)C3)ncnc21
assayed target: PI3K delta (Homo sapiens, UniProt O00329)
metric: IC50
readout value: 500 to 1500 nM
//
structure as smiles: CCn1c(C(=O)NC2COC2)nc2c(N3CCC(n4c(=O)[nH]c5ccccc54)CC3)ncnc21
assayed target: PI3K delta (Homo sapiens, UniProt O00329)
metric: IC50
readout value: < 50 nM
//
structure as smiles: Cc1cncc(-c2nc3c(N4CCC(n5c(=O)[nH]c6ccccc65)CC4)ncnc3n2C)c1
assayed target: PI3K delta (Homo sapiens, UniProt O00329)
metric: IC50
readout value: < 50 nM
//
structure as smiles: Cn1c(C(=O)NCc2ccco2)nc2c(N3CCC4(CC3)C(=O)Nc3ccccc34)ncnc21
assayed target: PI3K delta (Homo sapiens, UniProt O00329)
metric: IC50
readout value: 50 to 250 nM
//
structure as smiles: CCn1cc(-c2nc3c(N4CCN(C5=NS(=O)(=O)c6ccccc65)CC4)ncnc3n2C)cn1
assayed target: PI3K delta (Homo sapiens, UniProt O00329)
metric: IC50
readout value: 50 to 250 nM
//
structure as smiles: Cn1c(C(=O)NCC2CC2)nc2c(N3CCC4(CC3)C(=O)Nc3c(Br)cccc34)ncnc21
assayed target: PI3K delta (Homo sapiens, UniProt O00329)
metric: IC50
readout value: < 50 nM

====

Overview of recorded pIC50 for various compounds
target: PI3K delta (Homo sapiens, UniProt O00329); assay: Luciferase-coupled chemiluminescence kinase assay (ATP consumption, KinaseGlo)
pIC50: −log10 of the molar value.

structure as smiles: Cn1c(-c2ccnnc2)nc2c(N3CCC(n4c(=O)[nH]c5ccccc54)CC3)ncnc21
pIC50: 6.60 to 7.30
//
structure as smiles: CCOC(=O)Cn1cc(-c2nc3c(N4CCC(n5c(=O)[nH]c6ccccc65)CC4)ncnc3n2C)cn1
pIC50: 6.30 to 6.60
//
structure as smiles: Cn1cc(-c2nc3c(N4CCN(S(=O)(=O)c5cc(Cl)ccc5Cl)CC4)ncnc3n2C)cn1
pIC50: 6.60 to 7.30
//
structure as smiles: Cn1c(C(=O)NCc2ccncc2)nc2c(N3CCC(n4c(=O)[nH]c5ccccc54)CC3)ncnc21
pIC50: 6.60 to 7.30

====

target: PI3K delta (Homo sapiens, UniProt O00329); assay: Luciferase-coupled chemiluminescence kinase assay (ATP consumption, KinaseGlo)
pIC50: −log10 of the molar value.

compound: CCn1c(-c2cccnc2)nc2c(N3CCC4(CC3)C(=O)Nc3ccccc34)ncnc21 [Compound 291]
pIC50: > 7.30
--
compound: Cc1c(-c2nc3c(N4CCC5(CC4)C(=O)Nc4ccccc45)ncnc3n2C)cnn1C [Compound 246]
pIC50: > 7.30
--
compound: CCn1c(C(=O)NCC2CCOCC2)nc2c(N3CCC(n4c(=O)[nH]c5ccccc54)CC3)ncnc21 [Compound 156]
pIC50: > 7.30
--
compound: CCCCc1nc2c(N3CCC(n4c(=O)[nH]c5ccccc54)CC3)ncnc2n1C [Compound 93]
pIC50: 5.82 to 6.30
--
compound: Cc1nc2c(N3CCC(n4c(=O)[nH]c5ccccc54)CC3)ncnc2n1C [Compound 81]
pIC50: 5.82 to 6.30
--
compound: Cn1c(-n2cccc2)nc2c(N3CCC(n4c(=O)[nH]c5ccccc54)CC3)ncnc21 [Compound 127]
pIC50: 5.82 to 6.30
--
compound: CCn1c(C(=O)NCC(C)C)nc2c(N3CCC4(CC3)C(=O)Nc3ccccc34)ncnc21 [Compound 164]
pIC50: > 7.30
--
compound: CCn1c(C(=O)NCC(C)(C)C)nc2c(N3CCC(n4c(=O)[nH]c5ccccc54)CC3)ncnc21 [Compound 190]
pIC50: > 7.30
--
compound: Cn1c(C(=O)NCC2CC2)nc2c(N3CCC4(CC3)c3ccccc3CC4O)ncnc21 (stereo not shown) [Compound 130]
pIC50: 6.60 to 7.30
--
compound: CCn1c(-c2cccnc2)nc2c(N3CCC(n4c(=O)[nH]c5ccccc54)CC3)ncnc21 [Compound 296]
pIC50: > 7.30
--
compound: CCn1ncc(-c2nc3c(N4CCC(n5c(=O)[nH]c6ccccc65)CC4)ncnc3n2C)c1C [Compound 281]
pIC50: > 7.30
--
compound: CCn1c(C(=O)NCC(C)(C)O)nc2c(N3CCC(n4c(=O)[nH]c5ccccc54)CC3)ncnc21 [Compound 197]
pIC50: > 7.30
--
compound: Cn1c(C(=O)NCC2CCC2)nc2c(N3CCC4(CC3)C(=O)Nc3ccccc34)ncnc21 [Compound 89]
pIC50: 6.60 to 7.30
--
compound: CCn1c(C(=O)N2CCC(F)(F)C2)nc2c(N3CCC(n4c(=O)[nH]c5ccccc54)CC3)ncnc21 [Compound 191]
pIC50: > 7.30
--
compound: Cc1ccc(S(=O)(=O)N2CCN(c3ncnc4c3nc(-c3cnn(C)c3)n4C)CC2)cc1 [Compound 370]
pIC50: 5.82 to 6.30
--
compound: CCCc1nnc(-c2nc3c(N4CCC5(CC4)C(=O)Nc4ccccc45)ncnc3n2C)o1 [Compound 177]
pIC50: > 7.30
--
compound: CC(=O)c1ccc(S(=O)(=O)N2CCN(c3ncnc4c3nc(-c3cnn(C)c3)n4C)CC2)cc1 [Compound 384]
pIC50: 5.82 to 6.30
--
compound: CCn1c(C(=O)N2CC(F)(F)C2)nc2c(N3CCC(n4c(=O)[nH]c5ccccc54)CC3)ncnc21 [Compound 189]
pIC50: > 7.30
--
compound: CCn1c(-c2cnc(OC)nc2OC)nc2c(N3CCC(n4c(=O)[nH]c5ccccc54)CC3)ncnc21 [Compound 321]
pIC50: 5.82 to 6.30
--
compound: Cn1cc(-c2nc3c(N4CCN(c5cccc(OCC(=O)N6CCCCC6)c5)CC4)ncnc3n2C)cn1 [Compound 357]
pIC50: 5.82 to 6.30
--
compound: Cn1c(C(=O)NCC2CC2)nc2c(N3CCC(n4c(=O)[nH]c5c(F)cccc54)CC3)ncnc21 [Compound 278]
pIC50: 6.60 to 7.30
--
compound: Cn1c(C(=O)NCCO)nc2c(N3CCC(n4c(=O)[nH]c5ccccc54)CC3)ncnc21 [Compound 55]
pIC50: 6.60 to 7.30
--
compound: CCn1c(C(=O)NCC2CC2)nc2c(N3CCC4(CC3)C(=O)Nc3ccccc34)ncnc21 [Compound 163]
pIC50: > 7.30
--
compound: CCNC(=O)c1nc2c(N3CCC(n4c(=O)[nH]c5ccccc54)CC3)ncnc2n1CC [Compound 192]
pIC50: 6.60 to 7.30
--
compound: Cn1c(C(=O)N2CC(F)(F)C2)nc2c(N3CCC(n4c(=O)[nH]c5ccccc54)CC3)ncnc21 [Compound 104]
pIC50: 6.60 to 7.30
--
compound: CCCc1nnc(-c2nc3c(N4CCC(n5c(=O)[nH]c6ccccc65)CC4)ncnc3n2C)o1 [Compound 123]
pIC50: > 7.30
--
compound: CCn1c(C(=O)NCC2CCC2)nc2c(N3CCC(n4c(=O)[nH]c5ccccc54)CC3)ncnc21 [Compound 185]
pIC50: > 7.30
--
compound: Cn1c(C(=O)NCC2CC2)nc2c(N3CCC4(CC3)OC(=O)c3ccccc34)ncnc21 [Compound 138]
pIC50: 5.82 to 6.30
--
compound: Cn1c(C(=O)NCC2CC2)nc2c(N3CCC4(CC3)C(=O)Oc3ccccc34)ncnc21 [Compound 129]
pIC50: 6.30 to 6.60
--
compound: CC(C)NC(=O)c1nc2c(N3CCC(n4c(=O)[nH]c5ccccc54)CC3)ncnc2n1C [Compound 54]
pIC50: 6.60 to 7.30
--
compound: Cn1cc(-c2nc3c(N4CCN(c5ccccc5CNC(=O)C5CC5)CC4)ncnc3n2C)cn1 [Compound 362]
pIC50: 5.82 to 6.30
